measure: N2 permeability (Barrer)

The following compounds have reported results that may help.
| compound | N2 permeability (Barrer) |
| --- | --- |
| *c1ccc(Oc2ccc(C(c3ccc(Oc4ccc(N5C(=O)c6ccc(C(c7ccc8c(c7)C(=O)N(*)C8=O)(C(F)(F)F)C(F)(F)F)cc6C5=O)cc4C(F)(F)F)cc3)(C(F)(F)F)C(F)(F)F)cc2)c(C(F)(F)F)c1 (repeat unit) | 1.3 |
| *CC(*)c1ccccc1 (repeat unit) | 0.53 |
| *c1ccc(Oc2ccc3ccccc3c2-c2c(Oc3ccc(N4C(=O)c5ccc(C(c6ccc7c(c6)C(=O)N(*)C7=O)(C(F)(F)F)C(F)(F)F)cc5C4=O)cc3C(F)(F)F)ccc3ccccc23)c(C(F)(F)F)c1 (repeat unit) | 0.78 |
| *Oc1ccc(S(=O)(=O)c2ccc(Oc3ccc4ccc(*)cc4c3)cc2)cc1 (repeat unit) | 0.0735 |
| *c1cc(CCCCCCCCCCCC)c(*)s1 (repeat unit) | 9.4 |

(a) *c1ccc(Oc2ccc(-n3c(=O)c4cc5sc6cc7c(=O)n(*)c(=O)c7cc6sc5cc4c3=O)cc2)cc1 (repeat unit)
(b) *Oc1ccc(C(c2ccc(OC(=O)c3cccc(C(*)=O)c3)cc2)(C(F)(F)F)C(F)(F)F)cc1 (repeat unit)
(c) *Oc1ccc2c(c1)C1(CC2(C)C)CC(C)(C)c2ccc(OC(=O)c3ccc(C(*)=O)cc3)cc21 (repeat unit)
(d) *C(=C(*)c1cccc(O)c1)c1ccc(C(C)(C)C)cc1 (repeat unit)
input: Please list the entries, largest N2 permeability first. # answer = labels listed in requested order
output: d, c, b, a

(I) *c1ccc(-c2ccc(N3C(=O)c4ccc([Si](C)(C)c5ccc6c(c5)C(=O)N(*)C6=O)cc4C3=O)c(OC)c2)cc1OC (repeat unit)
(II) *c1ccc(Cc2ccc(N3C(=O)c4cc(Oc5ccccc5)c(-c5cc6c(cc5Oc5ccccc5)C(=O)N(*)C6=O)cc4C3=O)cc2)cc1 (repeat unit)
(III) *Oc1ccc(S(=O)(=O)c2ccc(Oc3ccc(C4(c5ccc(*)c(C)c5)CCCCC4)cc3C)cc2)cc1 (repeat unit)
(IV) *Oc1ccc(C(=O)c2ccc(Oc3ccc(C(c4ccc(*)cc4)(C(F)(F)F)C(F)(F)F)cc3)cc2)c2ccccc12 (repeat unit)
input: Sort the 4 compounds by N2 permeability; largest first, smallest last. Give the order by naming the labels one after another as requested.
output: II, IV, I, III
(II: 0.73 Barrer, IV: 0.325 Barrer, I: 0.096 Barrer, III: 0.0569 Barrer)

----------
measure: CH4 permeability (Barrer)

Use the examples below as a reference point.
| molecule | readout.unit | CH4 permeability |
| --- | --- | --- |
| *OC(=O)Oc1c(Br)cc(C(C)(C)c2cc(Br)c(*)c(Br)c2)cc1Br (repeat unit) | Barrer | 0.123 |
| *c1ccc2c(c1C)N1Cc3ccc(N4C(=O)c5ccc(C(c6ccc7c(c6)C(=O)N(*)C7=O)(C(F)(F)F)C(F)(F)F)cc5C4=O)c(C)c3N(C2)C1 (repeat unit) | Barrer | 6.3 |
| *c1ccc(Oc2ccc(Oc3ccc(*)cc3)c3c2C2c4ccccc4C3c3ccccc32)cc1 (repeat unit) | Barrer | 0.21 |
| *c1ccc(Oc2ccc(C3(c4ccc(Oc5ccc(N6C(=O)c7ccc(C(c8ccc9c(c8)C(=O)N(*)C9=O)(C(F)(F)F)C(F)(F)F)cc7C6=O)cc5)cc4)OC(=O)c4ccccc43)cc2)cc1 (repeat unit) | Barrer | 0.455 |
| *O[Si](C)(C)CCCCCC[Si](*)(C)C (repeat unit) | Barrer | 395 |

(P) *CN1CN(*)Cc2cc3c(cc21)C1c2ccccc2C3c2cc(*)c(*)cc21 (repeat unit)
(Q) *c1ccc2c(-c3c(OC(C)=O)ccc4cc(N5C(=O)c6ccc(C(=O)c7ccc8c(c7)C(=O)N(*)C8=O)cc6C5=O)ccc34)c(OC(C)=O)ccc2c1 (repeat unit)
input: Given the listed records, identify the one among P and Q with higher CH4 permeability. Answer with the label corresponding to your selection.
output: P
(P: 562 Barrer, Q: 0.08 Barrer)

----------
measure: N2 permeability (Barrer)

Below, 8 compounds whose answers are already recorded.
| compound | readout.unit | result |
| --- | --- | --- |
| *c1cc2c(cc1O)C1(CC2(C)C)CC(C)(C)c2cc(N3C(=O)C4C5C=CC(C6C(=O)N(*)C(=O)C56)C4C3=O)c(O)cc21 (repeat unit) | Barrer | 5.5 |
| *CC(*)OC(=O)c1cccc(C)c1 (repeat unit) | Barrer | 0.0875 |
| *C(=C(*)c1ccc2c(ccc3ccccc32)c1)c1ccccc1 (repeat unit) | Barrer | 650 |
| *C(=O)c1ccc(C2(c3ccc(C(=O)c4ccc(Oc5ccc(C(=O)c6ccc(Oc7ccc(*)cc7)cc6)cc5)cc4)cc3)OC(=O)c3ccccc32)cc1 (repeat unit) | Barrer | 0.0986 |
| *Oc1ccc(C(=O)c2ccc(-c3ccc(C(=O)c4ccc(Oc5ccc(S(=O)(=O)c6ccc(*)cc6)cc5)cc4)cc3)cc2)cc1 (repeat unit) | Barrer | 0.11 |
| *Oc1ccc(S(=O)(=O)c2ccc(Oc3c(C)cc(C(c4cc(C)c(*)c(C)c4)(C(F)(F)F)C(F)(F)F)cc3C)cc2)cc1 (repeat unit) | Barrer | 4 |
| *c1cccc(C(c2cccc(N3C(=O)c4ccc(C(c5ccc6c(c5)C(=O)N(*)C6=O)(C(F)(F)F)C(F)(F)F)cc4C3=O)c2)(C(F)(F)F)C(F)(F)F)c1 (repeat unit) | Barrer | 0.261 |
| *CC(*)c1ccc([Si](C)(C)CCCC(F)(F)F)cc1 (repeat unit) | Barrer | 11.8 |

(P) *Oc1ccc(-c2c(-c3ccc(C)cc3)c(-c3ccc(C)cc3)c(-c3ccc4c(c3)Oc3c(C#N)c(*)c(*)c(C#N)c3O4)c(-c3ccc(C)cc3)c2-c2ccc(C)cc2)cc1O* (repeat unit)
(Q) *c1c(C)cc(-c2cc(C)c(-c3cc(C)c(*)c(C)c3)cc2C)cc1C (repeat unit)
(R) *OCC1OC(COCC)C(*)C(OCC)C1OCC (repeat unit)
(S) *c1ccc(-c2ccc(N3C(=O)c4ccc(-c5ccc6c(c5)C(=O)N(*)C6=O)cc4C3=O)c(O)c2)cc1O (repeat unit)
(T) *c1c(C)cc(-c2cc(C)c(-n3c(=O)c4cc5oc6cc7c(cc6oc5cc4c3=O)C3(CC(C)(C)c4cc5oc6cc8c(=O)n(*)c(=O)c8cc6oc5cc43)CC7(C)C)c3ccccc23)c2ccccc12 (repeat unit)
input: Highest N2 permeability first, then in falling order down to the smallest. Your reply should list the labels following the order given in the request.
output: T, P, Q, R, S

(1) *C(=C(*)c1ccc2c(ccc3ccccc32)c1)c1ccc([Si](C)(C)C)cc1 (repeat unit)
(2) *c1ccc(Oc2ccc(-c3ccc(-c4ccc(-c5ccc(Oc6ccc(N7C(=O)c8ccc(C(c9ccc%10c(c9)C(=O)N(*)C%10=O)(C(F)(F)F)C(F)(F)F)cc8C7=O)cc6)c(C(F)(F)F)c5)cc4)cc3)cc2C(F)(F)F)cc1 (repeat unit)
input: I'm curious, which of these has a smaller N2 permeability number: 1 or 2 ? // output: label of the selected item
output: 2
(2: 3.11 Barrer, 1: 190 Barrer)

(A) *c1ccc(Oc2ccc(C(*)(c3ccccc3)C(F)(F)F)cc2)cc1 (repeat unit)
(B) *c1ccc(Oc2ccc(C(C)(C)c3ccc(Oc4ccc(N5C(=O)c6ccc(-c7ccc8c(c7)C(=O)N(*)C8=O)cc6C5=O)cc4)cc3)cc2)cc1 (repeat unit)
input: Which record would sort first by descending N2 permeability, A or B ? Kindly give the label for the entry you pick.
output: A

(A) *Nc1ccc(Cc2ccc(NC(=O)CN3C(=O)c4ccc(C(*)=O)cc4C3=O)cc2)cc1 (repeat unit)
(B) *c1ccc(Oc2ccc(N3C(=O)c4cc(Oc5ccc(C)cc5)c(-c5cc6c(cc5Oc5ccc(C)cc5)C(=O)N(*)C6=O)cc4C3=O)cc2)cc1 (repeat unit)
(C) *c1ccc(Cc2ccc(N3C(=O)c4ccc(Sc5ccc6c(c5)C(=O)N(*)C6=O)cc4C3=O)cc2)cc1 (repeat unit)
(D) *c1cccc(N2C(=O)c3ccc(C(c4ccc5c(c4)C(=O)N(*)C5=O)(C(F)(F)F)C(F)(F)F)cc3C2=O)c1C (repeat unit)
input: Please list the entries, largest N2 permeability first. Provide the labels, sequenced as the question asks.
output: D, B, C, A

----------
measure: CO2 permeability (Barrer)

(P) *c1cc(CCCCCCCCCCCC)c(*)s1 (repeat unit)
(Q) *c1ccc(-c2ccc(Oc3ccc4c(c3)C3(CC4(C)C)CC(C)(C)c4ccc(Oc5ccc(-c6ccc(N7C(=O)c8ccc(C(c9ccc%10c(c9)C(=O)N(*)C%10=O)(C(F)(F)F)C(F)(F)F)cc8C7=O)cc6)cc5C(F)(F)F)cc43)c(C(F)(F)F)c2)cc1 (repeat unit)
input: Return label of the item with the larger CO2 permeability. Candidates: P , Q . Returns: label corresponding to the selected item.
output: P
(P: 88.2 Barrer, Q: 53 Barrer)

(I) *c1ccc2c(-c3c(O)ccc4cc(N5C(=O)c6ccc(Oc7ccc8c(c7)C(=O)N(*)C8=O)cc6C5=O)ccc34)c(O)ccc2c1 (repeat unit)
(II) *Oc1c(C)cc(C(c2cc(C)c(Oc3ccc(S(=O)(=O)c4ccc(*)cc4)cc3)c(C)c2)(C(F)(F)F)C(F)(F)F)cc1C (repeat unit)
(III) *c1c(C)cc2c(c1C)C1c3ccccc3C2c2cc(C)c(N3C(=O)C4C5C=CC(C6C(=O)N(*)C(=O)C56)C4C3=O)c(C)c21 (repeat unit)
(IV) *Oc1ccc(C(=O)c2ccc(-c3ccc(C(=O)c4ccc(Oc5ccc(S(=O)(=O)c6ccc(*)cc6)cc5)cc4)cc3)cc2)cc1 (repeat unit)
input: Rank order required: CO2 permeability, descending. Return value: ordered labels per request.
output: III, II, IV, I
(III: 1310 Barrer, II: 72 Barrer, IV: 3.27 Barrer, I: 1.87 Barrer)
